Experiment: Biodistribution and brain penetration after PO dose
Assay type: in vivo, balb/c mice
Details: male, BALB/c, mouse, brain, po, 10 mg kg^−1, 24 h after single PO 10 mg kg^−1, balb/c mice, n = 4; read-out: Brain Content
Measurement Name: concentration at 24 h (ng/g)

> print(dat)
                                   molecule       measurement.name  numeric.result
1  Nc1nc2cc(CC[C@H]3C[C@@H](n4ccc5c(N)ncnc54)[C@H](O)[C@@H]3O)ccc2cc1Br [JNJ, JNJ-64619178]  concentration at 24 h              23

* * *

Test: Biodistribution and brain penetration after PO dose
Type: in vivo, balb/c mice
Conditions: male, BALB/c, mouse, plasma, po, 10 mg kg^−1, 2 h, PO 10 mg kg^−1; estimated with fu,plasma = 0.025; read-out: Unbound Plasma Concentration
Measurement Name: concentration at 2 h (ng/mL)

> print(dat)
                                     smiles  numeric.result
1  Nc1nc2cc(CC[C@H]3C[C@@H](n4ccc5c(N)ncnc54)[C@H](O)[C@@H]3O)ccc2cc1Br              37

* * *

Experiment: Biodistribution and brain penetration after PO dose
Format: in vivo, balb/c mice
Settings: male, BALB/c, mouse, kidney, po, 10 mg kg^−1, 24 h after single PO 10 mg kg^−1, balb/c mice, n = 4; read-out: Content, Kidney
Measurement Name: concentration at 24 h (ng/g)

> print(dat)
                                     smiles  unit.info  numeric.result
1  Nc1nc2cc(CC[C@H]3C[C@@H](n4ccc5c(N)ncnc54)[C@H](O)[C@@H]3O)ccc2cc1Br       ng/g              56

* * *

Assay: Biodistribution and brain penetration after PO dose
Assay type: in vivo, balb/c mice
Details: male, balb/c, mouse, liver, po, 10 mg kg^−1, 2 h after single PO 10 mg kg^−1, balb/c mice, n = 4; read-out: Content, Liver
Measurement Name: concentration at 2 h (ng/g)

> print(dat)
                                     smiles      measurement.name  numeric.result
1  Nc1nc2cc(CC[C@H]3C[C@@H](n4ccc5c(N)ncnc54)[C@H](O)[C@@H]3O)ccc2cc1Br  concentration at 2 h            6070

* * *

Experiment: Biodistribution and brain penetration after PO dose
Type: in vivo, balb/c mice
Details: male, balb/c, mouse, kidney, po, 10 mg kg^−1, 2 h after single PO 10 mg kg^−1, balb/c mice, n = 4; read-out: Content, Kidney
Measurement Name: concentration at 2 h (ng/g)

> print(dat)
                                   compound      measurement.name  numeric.result
1  Nc1nc2cc(CC[C@H]3C[C@@H](n4ccc5c(N)ncnc54)[C@H](O)[C@@H]3O)ccc2cc1Br [JNJ, JNJ-64619178]  concentration at 2 h            2950

* * *

Assay: Biodistribution and brain penetration after PO dose
Type: in vivo, balb/c mice
Conditions: male, BALB/c, mouse, brain, po, 10 mg kg^−1, 8 h, PO 10 mg kg^−1; estimated with fu,brain = 0.057; read-out: Unbound Brain Content
Measurement Name: concentration at 8 h (ng/g)

> print(dat)
                                     smiles      measurement.name  unit.info  numeric.result
1  Nc1nc2cc(CC[C@H]3C[C@@H](n4ccc5c(N)ncnc54)[C@H](O)[C@@H]3O)ccc2cc1Br  concentration at 8 h       ng/g             1.9

* * *

Assay: Biodistribution and brain penetration after PO dose
Format: in vivo, balb/c mice
Settings: male, BALB/c, mouse, plasma, po, 10 mg kg^−1, 8 h, PO 10 mg kg^−1; estimated with fu,plasma = 0.025; read-out: Unbound Plasma Concentration
Protocol: Mouse plasma and tissue samples (liver, spleen, kidney, lung and brain) were prepared following the SPE procedure. Collected tissues were homogenized using Tissue Lyser II purchased from Qiagen Science, KY, after adding four times as much water as the tissue mass. For calibration standards and QC sample preparation, the 10 µL working stock and IS were spiked into 100 µL mouse plasma or tissue homogenates (liver, spleen, kidney, lung, and brain). […]
Measurement Name: concentration at 8 h (ng/mL)

> print(dat)
                                     smiles  unit.info  numeric.result
1  Nc1nc2cc(CC[C@H]3C[C@@H](n4ccc5c(N)ncnc54)[C@H](O)[C@@H]3O)ccc2cc1Br      ng/mL             2.3

* * *

Experiment: Biodistribution and brain penetration after PO dose
Type: in vivo, balb/c mice
Conditions: male, BALB/c, mouse, plasma, po, 10 mg kg^−1, 8 h, PO 10 mg kg^−1, balb/c mice; read-out: Plasma Concentration
Measurement Name: concentration at 8 h (ng/mL)

> print(dat)
                                     smiles  numeric.result
1  Nc1nc2cc(CC[C@H]3C[C@@H](n4ccc5c(N)ncnc54)[C@H](O)[C@@H]3O)ccc2cc1Br              93

* * *

Experiment: In vivo PK study (plasma, IV and PO)
Set-up: species or system balb/c mice
Conditions: male, balb/c, mouse, plasma, iv, 2.5 mg/kg, IV 2.5 mg kg^−1, balb/c mice, plasma, n = 6; read-out: Tmax (converted)
Measurement Name: Tmax (min)

> print(dat)
                                   compound  measurement.name  numeric.result
1  Nc1nc2cc(CC[C@H]3C[C@@H](n4ccc5c(N)ncnc54)[C@H](O)[C@@H]3O)ccc2cc1Br [JNJ, JNJ-64619178]              Tmax             6.6

* * *

Assay: In vivo PK study (plasma, IV and PO)
Set-up: species or system balb/c mice
Settings: male, mouse, plasma; IV 2.5 mg kg^−1, balb/c mice, n = 6; read-out: t1/2 (terminal half-life) (converted)
Measurement Name: half-life (h)

> print(dat)
                                     smiles  measurement.name  numeric.result
1  Nc1nc2cc(CC[C@H]3C[C@@H](n4ccc5c(N)ncnc54)[C@H](O)[C@@H]3O)ccc2cc1Br         half-life             3.3

* * *

Assay: In vivo PK study (plasma, IV and PO)
Design: species or system balb/c mice
Details: male, mouse, plasma; PO 10 mg kg^−1, balb/c mice, n = 4; read-out: t1/2 (terminal half-life) (converted)
Measurement Name: half-life (h)

> print(dat)
                                   compound  numeric.result
1  Nc1nc2cc(CC[C@H]3C[C@@H](n4ccc5c(N)ncnc54)[C@H](O)[C@@H]3O)ccc2cc1Br [JNJ, JNJ-64619178]             2.6

* * *

Test: Microsomal metabolic stability, mouse liver microsomes
Type: in vitro ADME
Settings: mouse, liver microsomes, pH 7.4; MLMs, NADPH, 1 µg mL^−1, n = 3; read-out: percent remaining concentration after 1 h incubation
Method: Mouse and human liver microsomes were used for the metabolic stability assay. […] Finally, after 1 h of collection, samples were vortexed at 1000 rpm for 1 min and centrifuged at 2200× g for 15 min, and the collected supernatant was analyzed using LC-MS/MS. The natural logarithm of the area ratio versus time was plotted, and the slope of the curve was calculated by a linear regression equation to generate the elimination rate constant, k (min^−1). […]
Measurement Name: remaining at 1 h, 1 µg mL^−1

> print(dat)
                                     smiles  result
1  Nc1nc2cc(CC[C@H]3C[C@@H](n4ccc5c(N)ncnc54)[C@H](O)[C@@H]3O)ccc2cc1Br     60%

* * *

Experiment: Rapid equilibrium dialysis (RED) brain protein binding
Format: in vitro ADME, mouse
Conditions: mouse, brain homogenate, mouse brain; read-out: fraction unbound in brain (fu,brain)
Measurement Name: fraction unbound at 5 h

> print(dat)
                                   compound         measurement.name  numeric.result
1  Nc1nc2cc(CC[C@H]3C[C@@H](n4ccc5c(N)ncnc54)[C@H](O)[C@@H]3O)ccc2cc1Br [JNJ, JNJ-64619178]  fraction unbound at 5 h           0.057
